Below: a set of entries, each annotated with reported kon.
- assayed target: T1, human IL-17A/F heterodimer, bacterially expressed construct (human, UniProt Q16552 40-155; Q96PD4 39-163, limits assumed)
- T1 construct: IL-17A unit with N68D, IL-17F unit with N83D and C137S, both with GSEDS spacer; already in the entries
- T1 sequence (Q16552 40-155 N68D limits assumed, chain 1 of 2): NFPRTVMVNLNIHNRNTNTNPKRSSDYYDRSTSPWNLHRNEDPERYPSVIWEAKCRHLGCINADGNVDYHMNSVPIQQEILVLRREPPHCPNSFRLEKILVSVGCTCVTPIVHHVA
- T1 sequence (Q96PD4 other isoform, or with tags, fused parts or gaps limits assumed, chain 2 of 2): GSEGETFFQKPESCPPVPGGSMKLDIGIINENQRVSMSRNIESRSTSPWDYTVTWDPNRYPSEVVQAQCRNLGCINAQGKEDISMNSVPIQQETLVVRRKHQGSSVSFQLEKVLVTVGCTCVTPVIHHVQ
- assay info: BLI, biotinylated VHH immobilized on streptavidin sensors, IL-17 as analyte (10, 20, 40 nM), mass transport fit; apparent value, avidity possible;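 note: wavelength shift (nm) signal, 800 s association then 800 s dissociation, reference from parallel sensors without VHH, avidity from immobilized VHH may lower apparent off-rates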
Dear colleague, please return just the value in M⁻¹ s⁻¹, with no unit written.

Consider the reported kon for these binders:
Re42B04 with C-terminal Avi-Biotin-tag, biotinylated (VHH, biotin on the C-terminal Avi-tag (BirA), not shown: C-terminal Avi-Biotin-tag) VHH: QVQLVESGGGLVQVGGSLRLSCEVSGLPVSSYAMGWFRQAPEKEREFVAAISWIGGDSRYAHFVKGRFTISRDNAKNTVHLQMDSLKPEDTAVYYCNDMPYGLDTRMDEYEYWGLGTQVTVSS | 240000
Re42B03 with C-terminal Avi-Biotin-tag, biotinylated (VHH, biotin on the C-terminal Avi-tag (BirA), not shown: C-terminal Avi-Biotin-tag) VHH: QVQLVESGGGLVQAGGSLRLSCAASGLTGSSYAMGWFRQAPGKEREFVAAISWISGGTKYTDSVKDRFTMSRDYAKKQVYLEMNSLKPEDTAVYYCNDMPYGLDTRMDEYVYWGQGTQVTVSS | 340000
Bm18F11 with C-terminal Avi-Biotin-tag, biotinylated (VHH, biotin on the C-terminal Avi-tag (BirA), not shown: C-terminal Avi-Biotin-tag) VHH: QVQLVESGGDLVQAGGSLRLSCAASGLTGSSYAMGWFRQAPGKEREFVAAISWISGDTKYTDSVKGRFTMSRDNAKKQVYLEMNSLKPEDTAVYYCNDMPYGLDTRMDEYVYWGQGTQVTVSS | 280000

Prompt line: Quick one: kon for Bm18B05 with C-terminal Avi-Biotin-tag, biotinylated (VHH, biotin on the C-terminal Avi-tag (BirA), not shown: C-terminal Avi-Biotin-tag) VHH: QVQLVESGGGLVQPGGSLRLSCAVSGRTFSSYAMGWFRRPPGKEREFVAAISWSGGDTKYADFVTDRFTISRDDAKSTVYLQMNSLKPEDTAVYYCNDMPYGLDTRMDEYEYWGQGTQVTVSS ?
Response line: 120000

Prompt line: Check Re42H11 with C-terminal Avi-Biotin-tag, biotinylated (VHH, biotin on the C-terminal Avi-tag (BirA), not shown: C-terminal Avi-Biotin-tag) VHH: QVQLVESGGGLVQAGGSLRLSCAASGLTASSYAMGWFRQAPGKEREFVAAISWISGGTKYADSVKGRFTMSRDNAKKQVYLEMNSLKPEDTAVYYCNDMPYGLDTRMDEYAYWGQGTQVTVSS too.
Response line: 360000
